This collection of values is drawn from paper PMC9837035.

experiment: Liver microsomal stability assay, dog; type: in vitro ADME; conditions: dog, liver microsomes, Metabolic stability, % remaining of RK-701, Dog; Time 20; replicate values
value-kind: remaining at 20 min, 1 µM (%)
Only the number, expressed in %, is required.

Data point: Cc1c(C(=O)NC(CCC2CC2)C(=O)Nc2ccc(C#N)cc2)[nH]c2c1C(=O)CC(C)(C)C2 (stereo not shown) [RK-701] ; remaining at 20 min, 1 µM = 53.4

---

target: MLL2; assay: Radioisotope-based methyltransferase assay (selectivity); conditions: MLL2, 1 μM SAM
Sequence (O14686 5319-5537): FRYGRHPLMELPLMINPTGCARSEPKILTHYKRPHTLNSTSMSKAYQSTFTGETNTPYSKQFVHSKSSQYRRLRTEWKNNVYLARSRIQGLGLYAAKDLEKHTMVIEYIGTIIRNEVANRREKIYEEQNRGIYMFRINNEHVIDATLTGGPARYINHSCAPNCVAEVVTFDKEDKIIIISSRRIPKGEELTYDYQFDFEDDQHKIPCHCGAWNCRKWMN
Sequence (Q9C005 whole entry, further chain): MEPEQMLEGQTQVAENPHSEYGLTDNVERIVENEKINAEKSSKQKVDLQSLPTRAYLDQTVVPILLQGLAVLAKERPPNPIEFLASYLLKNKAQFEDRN
Sequence (Q15291 whole entry, further chain): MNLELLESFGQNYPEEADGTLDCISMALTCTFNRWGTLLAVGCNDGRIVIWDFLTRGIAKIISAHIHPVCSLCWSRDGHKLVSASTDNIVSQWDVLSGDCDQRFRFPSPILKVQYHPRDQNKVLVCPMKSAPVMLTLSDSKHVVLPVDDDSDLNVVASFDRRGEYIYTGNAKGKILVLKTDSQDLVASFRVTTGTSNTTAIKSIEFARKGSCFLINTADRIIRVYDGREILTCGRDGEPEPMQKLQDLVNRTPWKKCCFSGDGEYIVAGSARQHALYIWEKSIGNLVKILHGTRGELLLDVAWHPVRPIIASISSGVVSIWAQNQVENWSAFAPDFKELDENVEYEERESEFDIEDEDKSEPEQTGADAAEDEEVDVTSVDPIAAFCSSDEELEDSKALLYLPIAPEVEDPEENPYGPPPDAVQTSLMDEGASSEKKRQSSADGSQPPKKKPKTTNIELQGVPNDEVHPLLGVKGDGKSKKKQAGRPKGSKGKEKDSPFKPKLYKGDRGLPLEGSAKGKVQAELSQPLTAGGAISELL
Sequence (Q9UBL3 whole entry, further chain): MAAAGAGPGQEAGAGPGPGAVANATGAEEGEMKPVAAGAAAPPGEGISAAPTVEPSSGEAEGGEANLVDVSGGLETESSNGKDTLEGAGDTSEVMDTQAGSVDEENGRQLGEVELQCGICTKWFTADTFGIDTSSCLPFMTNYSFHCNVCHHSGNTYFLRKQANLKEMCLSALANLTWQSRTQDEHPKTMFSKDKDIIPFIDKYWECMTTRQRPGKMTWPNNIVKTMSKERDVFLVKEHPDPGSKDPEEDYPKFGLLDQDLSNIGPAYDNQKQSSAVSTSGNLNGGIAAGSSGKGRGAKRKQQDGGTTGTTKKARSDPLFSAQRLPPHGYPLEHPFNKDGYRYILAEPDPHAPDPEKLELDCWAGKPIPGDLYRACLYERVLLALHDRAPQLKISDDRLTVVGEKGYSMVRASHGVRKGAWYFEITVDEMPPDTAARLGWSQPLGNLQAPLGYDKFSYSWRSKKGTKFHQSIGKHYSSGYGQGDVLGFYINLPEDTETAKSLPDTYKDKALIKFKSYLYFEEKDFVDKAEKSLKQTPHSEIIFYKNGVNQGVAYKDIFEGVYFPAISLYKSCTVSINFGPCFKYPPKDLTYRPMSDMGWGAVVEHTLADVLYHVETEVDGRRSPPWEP
value-kind: IC50

Data point: Cc1c(C(=O)NC(CCC2CC2)C(=O)Nc2ccc(C#N)cc2)[nH]c2c1C(=O)CC(C)(C)C2 (stereo not shown) ; IC50 = > 100 µM
